Tested on: EP2 (Homo sapiens (Human), UniProt P43116)
Sequence (P43116 whole entry): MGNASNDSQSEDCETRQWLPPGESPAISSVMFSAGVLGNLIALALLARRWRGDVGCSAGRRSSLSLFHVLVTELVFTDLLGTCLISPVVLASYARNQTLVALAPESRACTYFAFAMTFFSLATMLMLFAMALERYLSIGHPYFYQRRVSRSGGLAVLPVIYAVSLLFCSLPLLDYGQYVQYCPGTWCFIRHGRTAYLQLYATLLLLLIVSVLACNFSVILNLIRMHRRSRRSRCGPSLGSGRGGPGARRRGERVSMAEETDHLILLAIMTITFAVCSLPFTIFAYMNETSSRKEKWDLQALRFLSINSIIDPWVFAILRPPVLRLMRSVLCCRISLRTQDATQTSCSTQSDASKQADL
Experimental protocol: hEP2 cAMP assay (SF295 glioblastoma cells, HTRF cAMP)
Condition summary: antagonistic activity
Parameter: IC50 (nM)

Record excerpt, results attached:
COc1c(CCNc2cc(-c3cc(F)c(C(=O)O)c(OC4CCC4)c3)ncn2)c(F)c(F)c2cc(C)oc12 855
CCOc1cc(-c2cc(NCCc3cc4c(cc3OC(F)F)OCO4)ncn2)ccc1C(=O)O 332
CSc1cc(-c2cc(NCCc3ccc4sccc4c3C)ncn2)ccc1CC(=O)O 160
CCOc1cc(-c2cc(NCCc3ccc4ccn(C)c4c3)ncn2)ccc1OCC(=O)O 673
CCOc1cc(-c2cc(NCCc3ccc4ncsc4c3)ncn2)sc1C(=O)O 586
CCOc1cc(-c2cc(NCCc3c(F)cc4ccccc4c3F)ncn2)sc1C(=O)O 268
CCOc1cc(-c2cc(NCCc3ccc4sccc4c3)ncn2)ccc1OCC(=O)O 283
CCOc1cc(-c2cc(NCCc3ccc4cc[nH]c4c3)ncn2)ccc1C(=O)O 302
CCOc1cc(-c2cc(NCCc3ccc4scc(C)c4c3)ncn2)ccc1C(=O)O 245

P = c1nc(NCCc2ccc3cc[nH]c3c2)cc(-c2ccc3cc[nH]c3c2)n1
Q = CCCc1cc(-c2cc(NCCc3ccc4sccc4c3F)ncn2)ccc1CC(=O)O
# input Field: lower recorded IC50 (choose P or Q ) Answer = label.
# output P
(P: 306 nM, Q: 453 nM)
